ASSAY_DETAILS: qHTS for Antagonists of gsp, the Etiologic Mutation Responsible for Fibrous Dysplasia/McCune-Albright Syndrome: qHTS; note: nearly all actives have a fitted effect of over 65% in size
RUN_CONDITIONS: gsp-mutant cells, cAMP HTRF, 30 min; series mostly up to 76.9 µM
The campaign covered roughly 340,000 compounds. About 1,400 (0.41%) were called active. Inconclusive results (about 4%) are left out. Calls come from the whole dose curve; cell line not stated here. For the sample, actives were picked, then their nearest neighbours and some compounds at random.
Result category, one only: 1 (yes) = active, 0 (no) = inactive

Solved entries:
INSERT INTO measurements (structure_smiles, group_label) VALUES
  ('O=S(=O)(Nc1ccc2ccccc2c1)N1CCCCC1', '0 (no)'),
  ('Cc1cc(C)c2oc(C(=O)Nc3ccc(S(=O)(=O)Nc4nccc(C)n4)cc3)cc(=O)c2c1', '0 (no)');

Turning now to a further molecule:
Each molecule tested received a call. Report the one for "CC(C)OCCCNc1ncnc2c1[nH]c1ccc(F)cc12" .
1 (yes)

Sourced from PubChem BioAssay AID624288
